Taken from patent US7456274B2.

Biological target: B. cereus 5/B/6 metallo-β-lactamase (Bacillus cereus, UniProt P14488)
Sequence (P14488 30-256): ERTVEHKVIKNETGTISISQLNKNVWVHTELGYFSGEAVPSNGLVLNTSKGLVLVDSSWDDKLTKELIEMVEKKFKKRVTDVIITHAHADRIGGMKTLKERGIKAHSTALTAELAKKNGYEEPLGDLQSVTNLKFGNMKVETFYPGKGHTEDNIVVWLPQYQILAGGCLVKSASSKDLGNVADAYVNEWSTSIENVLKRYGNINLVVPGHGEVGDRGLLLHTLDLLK
Type: biochemical
Settings: enzyme preincubated 15 min at 30° C. in 50 mM MOPS, pH=7.0; 4 mM cephalosporin C
QUANTITY: IC50 (nM)
Numbers only, in nM.

I have this substance here, 5′-d(AACCAAACTTGGATCGGTGCACATGTCGAA)-3′ [30-mer] , and I need its recorded IC50. 1.2

###

Target: B. cereus 5/B/6 metallo-β-lactamase (Bacillus cereus, UniProt P14488)
Format: biochemical
Conditions: slope replot of Lineweaver-Burk data; read-out: Ki (dissociation constant for the inhibitor from the enzyme-inhibitor complex)
QUANTITY: Ki (nM)
One number for each entry, in nM.

What is its Ki for B. cereus 5/B/6 metallo-β-lactamase (Bacillus cereus, UniProt P14488)? Entry: 5′-d(AACCAAACTTGGATCGGTGCACATGTCGAA)-3′ [30-mer] 0.92
